Assay: Bidirectional permeability assay (Caco-2 cells)
Type: in vitro ADME
Details: human, Caco-2, pH 7.4, secretory direction (B2A), 10 μM in FaSSIF buffer
Measured endpoint: Papp B→A at 120 min, 10 μM (×10⁻⁶ cm/s)

Look over these answered cases.
| Compound | Papp B→A at 120 min, 10 μM [×10⁻⁶ cm/s] |
| --- | --- |
| CCCCC1CN(c2ccccc2)c2cc(SCC)c(OCC(C)(C)C(=O)O)cc2S(=O)(=O)N1C (stereo not shown) [Example 5] | 7.2 |
| CCCCC1CN(c2ccc(F)cc2)c2cc(SC)c(OCC(C)(C)C(=O)O)cc2S(=O)(=O)N1C (stereo not shown) | 8.6 |

(P) CCCCC1CN(c2ccccc2)c2cc(SC)c(OCC3(C(=O)O)CC3)cc2S(=O)(=O)N1C (stereo not shown) [Example 3]
(Q) CCCCC1CN(c2ccccc2)c2cc(SC)c(OCC(C)(OC)C(=O)O)cc2S(=O)(=O)N1C (single isomer, unassigned) [Example 23]
[Q] Out of P and Q , name the one with the higher Papp B→A at 120 min, 10 μM. Response format: the label of the selected entry.
[A] Q
